- Target desc: T1, interleukin 18 binding protein (IL-18BP) (UniProt O95998 31-194)
- T1 sequence (looked up): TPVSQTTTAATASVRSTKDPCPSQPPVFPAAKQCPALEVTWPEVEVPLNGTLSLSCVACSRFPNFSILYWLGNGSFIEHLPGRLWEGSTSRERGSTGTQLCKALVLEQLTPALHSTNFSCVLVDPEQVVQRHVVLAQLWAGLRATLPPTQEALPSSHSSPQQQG
- Procedure details: cell-based or functional assay
Exercise: for every item that follows, state its recorded Ratio (-BP/+BP), DF-1,000,000.

>  <Binder>
IL-18 variant T34N, S36Y, D37E, D40Q, N41Q, K53D, S55D (ligand) YFGKLESKLSVIRNLNDQVLFIDQGNRPLFEDMNDYEMRQQAPRTIFIISMYDDDQPRGMAVTISVKSEKISTLSSENKIISFKEMNPPDNIKDTKSDIIFFQRSVPGHDNKMQFESSSYEGYFLASEKERDLFKLILKKEDELGDRSIMFTVQNED

>  <Recorded value>
1

$$$$

For the next question, use this binder.
[in] # Ratio (-BP/+BP), DF-1,000,000 lookup, item IL-18 variant K53H, S55I (ligand) YFGKLESKLSVIRNLNDQVLFIDQGNRPLFEDMTDSDMRDNAPRTIFIISMYHDIQPRGMAVTISVKSEKISTLSSENKIISFKEMNPPDNIKDTKSDIIFFQRSVPGHDNKMQFESSSYEGYFLASEKERDLFKLILKKEDELGDRSIMFTVQNED
[out] 0.89
